Quantity Kind: melting point (°C)

# Test Smiles, Quantity Kind, Readout Unit, Obs Value
rows = [
    ("COc1ccc(NC(=O)c2ccc(-c3nn(Cc4ccccc4)c4ccccc34)o2)cc1", "melting point", "°C", 175),
    ("O=C(NCc1ccccn1)c1ccc(-c2nn(Cc3ccccc3)c3ccccc23)o1", "melting point", "°C", 160),
    ("CN(C)CCNC(=O)c1ccc(-c2nn(Cc3ccccc3)c3ccccc23)o1", "melting point", "°C", 130),
]

###

The entries below are paired with their reported melting point.

# Compound, melting point
rows = [
    ("CN(C(=O)c1ccc(-c2nn(Cc3ccccc3)c3ccccc23)o1)c1ccccc1", "190 °C"),
    ("O=C(Nc1nccs1)c1ccc(-c2nn(Cc3ccccc3)c3ccccc23)o1", "167 to 168 °C"),
    ("O=C(Nc1ccc([N+](=O)[O-])cc1)c1ccc(-c2nn(Cc3ccccc3)c3ccccc23)o1", "204 to 208 °C"),
    ("O=C(Nc1ccccc1O)c1ccc(-c2nn(Cc3ccccc3)c3ccccc23)o1", "196 to 197 °C"),
    ("CC(C)N(CCNC(=O)c1ccc(-c2nn(Cc3ccccc3)c3ccccc23)o1)C(C)C", "119 to 127 °C"),
    ("O=C(Nc1ccc2ccccc2c1)c1ccc(-c2nn(Cc3ccccc3)c3ccccc23)o1", "167 °C"),
    ("CCOC(=O)c1ccc(-c2nn(-c3cc(C(F)(F)F)cc(C(F)(F)F)c3)c3ccccc23)o1", "128 to 129 °C"),
    ("O=C(NC1CCCCC1)c1ccc(-c2nn(Cc3ccccc3)c3ccccc23)o1", "165 °C"),
    ("OCc1ccc(-c2nn(-c3cc(C(F)(F)F)cc(C(F)(F)F)c3)c3ccccc23)o1", "136 to 138 °C"),
    ("O=C(Nc1ccccc1)c1ccc(-c2nn(Cc3ccccc3)c3ccccc23)o1", "138 to 143 °C"),
    ("O=C(Nc1ccc(Cl)cc1)c1ccc(-c2nn(Cc3ccccc3)c3ccccc23)o1", "202 to 205 °C"),
    ("CC(C)NC(=O)c1ccc(-c2nn(Cc3ccccc3)c3ccccc23)o1", "156 °C"),
    ("CCCNC(=O)c1ccc(-c2nn(Cc3ccccc3)c3ccccc23)o1", "152 °C"),
    ("O=C(NCc1ccccc1)c1ccc(-c2nn(Cc3ccccc3)c3ccccc23)o1", "113 to 124 °C"),
    ("O=C(O)c1ccc(-c2nn(-c3cc(C(F)(F)F)cc(C(F)(F)F)c3)c3ccccc23)o1", "256 to 257 °C"),
    ("OC(c1ccccc1)c1ccc(-c2nn(Cc3ccccc3)c3ccccc23)o1 (centres unmarked)", "138 to 139 °C"),
    ("NC(=O)CNC(=O)c1ccc(-c2nn(Cc3ccccc3)c3ccccc23)o1", "219 to 222 °C"),
]

###

test system: rat aorta rings; assay: Relaxation of rat aorta (phenylephrine-precontracted aorta rings, organ bath); design: species or system rat (Wistar-Kyoto); conditions: Ring without endothelium, concentration by which phenylephrine (1 μM) contraction is inhibited by 50% (50% relaxation)

# Test Smiles, IC50 [nM]
records = [
    ("CNC(=O)c1ccc(-c2nn(Cc3ccccc3)c3ccccc23)o1", 200),
]
